These data points were gathered from paper PMC9482650.

- TARGET: DLG1_1, Q12959
- PROTOCOL_NOTES: holdup assay
- Design: key: below the threshold = too weak to quantify, mostly under pKd 3.1 to 4
- TEST_CONDITIONS: plain residues with an end cap or a label only (N-terminal biotin on a linker: ado-ado)
READOUT_NAME: pKd
Simply state the number, no unit and no words.

Given item PKRSFIESNV [TANC1, Q9C0D5] , the value recorded as its pKd is 4.69

Given item KKMPSIESDV [GRIN2A, Q12879] , the value recorded as its pKd is 4.75

Given item LPHGHSTTRV [NLGN4X, Q8N0W4] , the value recorded as its pKd is 3.82

Continue with the binder presented below.
Given item SKENVQETQI [LRRC4B, Q9NT99] , the value recorded as its pKd is 4.23
